Test system: human SMAD7 mRNA
Assay: Dose-dependent inhibition of human SMAD7 mRNA expression in Hep3B cells (Example 3, Study 1 and 2)
Format: cell-based
Details: electroporation, Study 2 (740-20000 nM)
Strand notation (5' to 3'): a small letter for the sugar, then the base; units joined by * are phosphorothioate-linked, units joined directly phosphodiester-linked; [ ] holds rarer units or linkages, { } end groups; capitals alone tell only the bases. k = constrained ethyl (cEt); [5mC] = 5-methylcytosine; d = 2'-deoxy (DNA)
So I've got a bunch of substances here, and I need their IC50 values.
Give the number; µM is assumed, so skip it.

State its IC50: 799980 (k[5mC]*k[5mC]*kA*dA*d[5mC]*dG*dG*dT*dT*dG*d[5mC]*d[5mC]*dT*k[5mC]*kA*kT; antisense) [compound 799980]
13

Return IC50 (reported value) for this substance: 798764 (kA*k[5mC]*kT*dT*dT*dG*d[5mC]*dA*d[5mC]*dA*dG*d[5mC]*dA*kG*kG*kA; antisense) [compound 798764]
1

Output measured IC50 for this item: 800066 (antisense kT*kG*kT*dT*dT*dT*dA*dA*dG*dT*dA*dG*d[5mC]*kA*kG*k[5mC]) [compound 800066]
9

Given 799668 (antisense kG*kA*k[5mC]*dA*dG*dA*dT*dG*d[5mC]*d[5mC]*dA*dG*d[5mC]*kA*kA*kG) [compound 799668] , respond with its IC50.
1

Provide IC50 value for the following substance: 799667 (antisense kA*k[5mC]*kA*dG*dA*dT*dG*d[5mC]*d[5mC]*dA*dG*d[5mC]*dA*kA*kG*kG) [compound 799667]
9

State its IC50 for this substance: 799540 (kA*kG*k[5mC]*dT*dG*dA*dA*dG*d[5mC]*d[5mC]*d[5mC]*d[5mC]*d[5mC]*k[5mC]*kA*kA; antisense) [compound 799540]
5

* * *

System: human SMAD7 mRNA
Experiment: Antisense inhibition of human SMAD7 mRNA expression in Hep3B cells by 5-10-5 MOE gapmers, single concentration, electroporation, RT-PCR (Example 1, Study 1 and 2)
Format: cell-based
Conditions: Study 2, electroporation with 15,000 nM antisense oligonucleotide, 5-10-5 MOE gapmers targeting SEQ ID NO: 1 and 2
Description: Antisense oligonucleotides were designed to target human SMAD7 mRNA and were tested for their effects on SMAD7 mRNA expression in vitro. […] After a treatment period of approximately 24 hours, RNA was isolated from the cells and SMAD7 mRNA levels were measured by quantitative real-time PCR. […] SMAD7 mRNA levels were adjusted according to total RNA content, as measured by RIBOGREEN®. […]
Strand notation (5' to 3'): a small letter for the sugar, then the base; units joined by * are phosphorothioate-linked, units joined directly phosphodiester-linked; [ ] holds rarer units or linkages, { } end groups; capitals alone tell only the bases. e = 2'-O-(2-methoxyethyl) (MOE); [5mC] = 5-methylcytosine; d = 2'-deoxy (DNA)
Entry flag: Condition met if % Inhibition reaches 30%; Condition not met if it does not.

Decide: is the reported value of % Inhibition for 771439 (eG*eG*e[5mC]*eT*eG*d[5mC]*dG*d[5mC]*dG*d[5mC]*d[5mC]*dG*dG*d[5mC]*dG*eG*eG*e[5mC]*eG*e[5mC]; antisense) [compound 771439] equal to or greater than 30%?
Condition met

Hello, I need to know if 771790 (antisense e[5mC]*eA*eA*eA*eA*d[5mC]*dT*d[5mC]*dT*d[5mC]*dT*dG*d[5mC]*d[5mC]*d[5mC]*eT*eG*eG*eA*e[5mC]) [compound 771790] has measured % Inhibition not below 30%. Thanks!
Condition met

Textbook exercise: given the entry 771391 (antisense eT*e[5mC]*e[5mC]*eG*eG*d[5mC]*dT*dG*d[5mC]*d[5mC]*d[5mC]*d[5mC]*dA*d[5mC]*d[5mC]*e[5mC]*e[5mC]*eG*e[5mC]*eG) [compound 771391] , state whether its % Inhibition is greater than or equal to 30%.
Condition not met

Is the recorded value of % Inhibition equal to or greater than 30% for this substance? 771895 (antisense eA*eT*eT*eT*eG*d[5mC]*dA*dA*d[5mC]*dA*dA*dT*dA*dA*dA*eA*e[5mC]*eA*eA*eA) [compound 771895]
Condition not met

# check: % Inhibition of 771350 (antisense eT*eT*eT*eG*e[5mC]*d[5mC]*d[5mC]*d[5mC]*dA*dA*dA*dA*d[5mC]*dT*d[5mC]*e[5mC]*eA*eA*eA*eG) [compound 771350] is greater than or equal to 30%
Condition not met
